Tested on: KURAMOCHI;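 note: growth inhibition of KURAMOCHI cells, read out with a cell viability assay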
measurement-notes: cells
Assay type: functional, cell-based, Homo sapiens
experimental-conditions: Homo sapiens, KURAMOCHI
Description: SANGER: Inhibition of human KURAMOCHI cell growth in a cell viability assay.
pIC50: −log10 of the molar value.
quantity-name: pIC50

Item: N[C@@H](CSC(c1ccccc1)(c1ccccc1)c1ccccc1)C(=O)O [S-TRITYL-L-CYSTEINE] | pIC50: < 5.29

Item: Cc1cn(-c2cc(NC(=O)c3ccc(C)c(Nc4nccc(-c5cccnc5)n4)c3)cc(C(F)(F)F)c2)cn1 [NILOTINIB] | pIC50: < 5.70

Item: O=C(O)c1ccc(-c2c[nH]c3ncc(-c4ccccc4)cc23)cc1C1CCCC1 [GSK-650394] | pIC50: < 4.80

Item: N#Cc1c(O)c2c(-c3ccc(-c4ccccc4O)cc3)csc2[nH]c1=O | pIC50: < 5.99

====

System: GAK;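 note: cell growth inhibition read out by a cell viability assay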
measurement-notes: cells
Format: functional, cell-based, Homo sapiens
experimental-conditions: gak
Description: SANGER: Inhibition of human GAK cell growth in a cell viability assay.
quantity-name: pIC50
Conceptually, pIC50 converts a concentration in mol/L into minus its log10.

# lookup: CISPLATIN on GAK, pIC50 = 3.31

====

Tested on: CAL-148
measurement-notes: cells
Assay type: functional, cell-based, Homo sapiens
experimental-conditions: Homo sapiens, CAL-148
Description: SANGER: Inhibition of human CAL-148 cell growth in a cell viability assay.
quantity-name: pIC50
Conceptually, pIC50 converts a concentration in mol/L into minus its log10.

Item: N#Cc1c(O)c2c(-c3ccc(-c4ccccc4O)cc3)csc2[nH]c1=O | pIC50: 6.65

Item: COc1cccc2c1C(=O)c1c(O)c3c(c(O)c1C2=O)C[C@@](O)(C(=O)CO)C[C@@H]3O[C@H]1C[C@H](N)[C@H](O)[C@H](C)O1 | pIC50: 7.57

Item: Cc1cc([N+](=O)[O-])ccc1NS(=O)(=O)c1cc(Cl)ccc1Cl | pIC50: 4.86

Item: OCCCNc1cc(-c2ccnc(Nc3cccc(Cl)c3)n2)ccn1 | pIC50: 6.70

Item: N[C@@H](CSC(c1ccccc1)(c1ccccc1)c1ccccc1)C(=O)O | pIC50: 5.36

====

So I've got a bunch of compounds here, and I need their pIC50 values.
Test system: SNU-449
measurement-notes: cells
Format: functional, cell-based, Homo sapiens
experimental-conditions: Homo sapiens, SNU-449
Description: SANGER: Inhibition of human SNU-449 cell growth in a cell viability assay.
pIC50: −log10 of the molar value.

Item: N#Cc1c(O)c2c(-c3ccc(-c4ccccc4O)cc3)csc2[nH]c1=O | pIC50: < 5.99

Item: CN(C)C(=N)NC(=N)N [METFORMIN] | pIC50: < 1.70

Item: Cc1cn(-c2cc(NC(=O)c3ccc(C)c(Nc4nccc(-c5cccnc5)n4)c3)cc(C(F)(F)F)c2)cn1 [NILOTINIB] | pIC50: < 5.70

Item: C=C(c1ccc(C(=O)O)cc1)c1cc2c(cc1C)C(C)(C)CCC2(C)C [BEXAROTENE] | pIC50: < 5.10

Item: O=C(O)c1ccc(-c2c[nH]c3ncc(-c4ccccc4)cc23)cc1C1CCCC1 [GSK-650394] | pIC50: < 4.80

Item: Cn1cnc2c(F)c(Nc3ccc(Br)cc3Cl)c(C(=O)NOCCO)cc21 [SELUMETINIB] | pIC50: < 5.40

====

Tested on: HuTu80;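 note: growth inhibition of HuTu80 human cells, determined with a cell viability readout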
measurement-notes: cells
Assay type: functional, cell-based, Homo sapiens, HUTU-80
experimental-conditions: Homo sapiens, HuTu80
Description: SANGER: Inhibition of human HUTU-80 cell growth in a cell viability assay.
So I've got a bunch of compounds here, and I need their IC50 values.

Item: N[C@@H](CSC(c1ccccc1)(c1ccccc1)c1ccccc1)C(=O)O [S-TRITYL-L-CYSTEINE] | IC50: 0.546 µM

Item: Cc1cn(-c2cc(NC(=O)c3ccc(C)c(Nc4nccc(-c5cccnc5)n4)c3)cc(C(F)(F)F)c2)cn1 [NILOTINIB] | IC50: > 2 µM

Item: CO[C@H]1C[C@@H]2CC[C@@H](C)[C@@](O)(O2)C(=O)C(=O)N2CCCC[C@H]2C(=O)O[C@H]([C@H](C)C[C@@H]2CC[C@@H](OC(=O)C(C)(CO)CO)[C@H](OC)C2)CC(=O)[C@H](C)/C=C(\C)[C@@H](O)[C@@H](OC)C(=O)[C@H](C)C[C@H](C)/C=C/C=C/C=C/1C [TEMSIROLIMUS] | IC50: > 0.2 µM

Item: CN(C)C(=N)NC(=N)N [METFORMIN] | IC50: > 20000 µM

Item: CC(C)CCN1c2nc(Nc3cc(F)c(O)c(F)c3)ncc2N(C)C(=O)C1C (stereo unspecified) | IC50: 3.67 µM

Item: COc1cc(-c2nn([C@H]3CC[C@H](N4CCN(C(C)=O)CC4)CC3)c3ncnc(N)c23)ccc1NC(=O)c1cc2ccccc2n1C | IC50: 1.5 µM

Item: CC[C@H](CO)Nc1nc(NCc2ccccc2)c2ncn(C(C)C)c2n1 [SELICICLIB] | IC50: > 16 µM

Item: CS(=O)(=O)c1ccc(C(=O)Nc2ccc(Cl)c(-c3ccccn3)c2)c(Cl)c1 [VISMODEGIB] | IC50: > 10 µM

Item: CCC/C=C/C=C/C(=O)O[C@H]1/C(=C/C(=O)OC)C[C@H]2C[C@H]([C@@H](C)O)OC(=O)C[C@H](O)C[C@@H]3C[C@H](OC(C)=O)C(C)(C)[C@](O)(C[C@@H]4C/C(=C/C(=O)OC)C[C@H](/C=C/C(C)(C)[C@]1(O)O2)O4)O3 [BRYOSTATIN 1] | IC50: > 0.008 µM

Item: C=C(c1ccc(C(=O)O)cc1)c1cc2c(cc1C)C(C)(C)CCC2(C)C [BEXAROTENE] | IC50: > 8 µM

Item: C#Cc1cccc(Nc2ncnc3cc(OCCOC)c(OCCOC)cc23)c1 [ERLOTINIB] | IC50: > 2 µM
